The reported numbers originate from the supplement of paper PMC11061612.

Item-by-item account of Bliss excess
Test system: GRANTA-519 (B-Cell Non-Hodgkin's Lymphoma);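 note: after 72 h of two-drug dosing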
Experiment: Bliss excess, mean over the matrix (fraction); higher = more synergy
Form: value (number only, do not type unit).

Cc1c2c(nn1C)CSCc1cc(n(C)n1)CSc1cc(c3ccccc3c1)OCCCc1c(C(=O)O)n(C)c3c-2c(Cl)ccc13 [AZD5991] + C1CN(CCC1(C(=O)N[C@@H](CCO)C2=CC=C(C=C2)Cl)N)C3=NC=NC4=C3C=CN4 [Capivasertib] (first compound max 1 µM, 7x7, partner max 3 µM)	-0.0295
CN(CCO)CC[C@H](CSc1ccccc1)Nc1ccc(S(=O)(=O)NC(=O)c2ccc(N3CCC([C@@H](O)c4ccccc4-c4ccc(Cl)cc4)CC3)cc2)cc1S(=O)(=O)C(F)(F)F [AZD4320] + Cc1cc2ncnn2cc1Nc1ncc2c(n1)n(C1CCOCC1)c(=O)n2C [AZD7648] (first compound max 1 µM, 7x7, partner max 10 µM)	0.0049

The record that follows has no Bliss excess shown yet.
IN: Indicate the recorded Bliss excess value for this compound: C[C@@H](c1ccc2nccn2c1)n1nnc2ncc(-c3cnn(C)c3)nc21 [Savolitinib] + Cc1c2c(nn1C)CSCc1cc(n(C)n1)CSc1cc(c3ccccc3c1)OCCCc1c(C(=O)O)n(C)c3c-2c(Cl)ccc13 [AZD5991] (first compound max 1 µM, 7x7, partner max 1 µM)
OUT: -0.0338
